experiment: Half life was evaluated in dog; format: ADME, organism-based, Canis lupus familiaris; settings: in vivo
Test Readout: half-life

>>> assay_result("O=C(O)[C@@H](CC1CC1)N1CC(CN2CCC(CCC(F)(F)c3ccc(F)cc3)CC2)[C@@H](c2cccc(F)c2)C1 (single isomer, unassigned)")
"2.4 h"

---

# key: entry, value: bioavailability
experiment: Oral bioavailability in rat; assay type: ADME, organism-based; details: in vivo
Test Readout: bioavailability (%)

>>> assay_result("O=C(O)[C@@H](CC1CC1)N1CC(CN2CCC(CCC(F)(F)c3ccc(F)cc3)CC2)[C@@H](c2cccc(F)c2)C1 (single isomer, unassigned)")
3.9
>>> assay_result("O=C(O)[C@@H](CC1CCC1)N1CC(CN2CCC(CCC(F)(F)c3ccc(F)cc3)CC2)[C@@H](c2cccc(F)c2)C1 (single isomer, unassigned)")
32
>>> assay_result("CC(O)(CCC1CCN(C[C@H]2CN([C@H](CC3CC3)C(=O)O)C[C@@H]2c2cccc(F)c2)CC1)c1ccc(F)cc1 (stereo not given in full)")
10
>>> assay_result("O=C(O)[C@@H](CC1CC1)N1C[C@H](CN2CCC(CCC(O)c3ccc(F)cc3)CC2)[C@@H](c2cccc(F)c2)C1 (stereo not given in full)")
2
>>> assay_result("O=C(O)[C@@H](CC1CCC1)N1C[C@H](CN2CCC(CCS(=O)(=O)c3ccc(F)cc3)CC2)[C@@H](c2cccc(F)c2)C1")
16
